So I've got a bunch of molecules here, and I need their pest or weed control at 50 µg/cm2 values.
Tested on: Beet Armyworm (Spodoptera exigua, LAPHEG)
assayExplanation: Bioassays on Beet Armyworm (BAW), 128-well diet tray assay
Type: in vivo
conditions: Spodoptera exigua; Table ABC: Biological Results; species BAW; read-out: BAW

What value of pest or weed control at 50 µg/cm2 has been recorded for this entry: Nc1c(F)ccc(NC(=O)c2cc(NC(=O)[C@H]3[C@H](c4cc(F)cc(Br)c4F)C3(Cl)Cl)ccc2Cl)c1F (relative stereo)
50 to 100%

And the next one, Cc1cc(NCc2ccc(Cl)cc2)ccc1NC(=O)c1cc(NC(=O)[C@H]2[C@H](c3cc(Cl)cc(Cl)c3)C2(Cl)Cl)ccc1Cl (relative stereo) ?
50 to 100%

Kindly review the next molecule as well.
What value of pest or weed control at 50 µg/cm2 has been recorded for this entry: N#Cc1cc(F)ccc1N(Cc1ccccc1)C(=O)c1cc(NC(=O)[C@H]2[C@H](c3cc(Cl)cc(Cl)c3)C2(Cl)Cl)ccc1Cl (relative stereo)
50 to 100%

====

So I've got a bunch of compounds here, and I need their pest or weed control at 50 µg/cm2 values.
Test system: Cabbage Looper (Trichoplusia ni, TRIPNI)
assayExplanation: Bioassays on Cabbage Looper (CL), 128-well diet tray assay
Format: in vivo
conditions: Trichoplusia ni; Cabbage Looper; rating class; read-out: CL

Sample answers from the record:
What value of pest or weed control at 50 µg/cm2 has been recorded for this entry: CCOC(C)C(=O)Nc1c(F)ccc(NC(=O)c2cc(NC(=O)[C@H]3[C@H](c4cccc(C(F)(F)F)c4)C3(Cl)Cl)ccc2Cl)c1F (stereo partly drawn)
50 to 100%

And the next one, `CC(=O)Nc1ccc(F)c(NC(=O)c2cc(NC(=O)[C@H]3[C@H](c4cc(Cl)c(Cl)c(Cl)c4)C3(Cl)Cl)cc(F)c2F)c1F` ?
50 to 100%

Kindly review the next compound as well.
What value of pest or weed control at 50 µg/cm2 has been recorded for this entry: `O=C(Nc1cc(NC(=O)C(F)(F)F)c(F)cc1F)c1cc(NC(=O)[C@H]2[C@H](c3cc(Cl)c(Cl)c(Cl)c3)C2(Cl)Cl)cc(F)c1F`
50 to 100%

====

System: Cabbage Looper (Trichoplusia ni, TRIPNI)
assayExplanation: Bioassays on Cabbage Looper (CL), 128-well diet tray assay
Assay type: in vivo
conditions: Trichoplusia ni; Cabbage Looper; rating class; read-out: CL
readout: pest or weed control at 50 µg/cm2

Sample answers from the record:
Notebook entry, Cabbage Looper (Trichoplusia ni, TRIPNI) assay: pest or weed control at 50 µg/cm2 of `Nc1cc(NC(=O)c2cc(NC(=O)[C@H]3[C@H](c4ccc(F)c(Cl)c4)C3(Cl)Cl)cc(F)c2Cl)c(F)cc1F` = ?
50 to 100%

And the next one, `CCO[C@@H](C)C(=O)Nc1c(F)ccc(NC(=O)c2cc(NC(=O)[C@H]3[C@H](c4ccc(F)c(C(F)(F)F)c4)C3(Cl)Cl)ccc2Cl)c1F` ?
50 to 100%

And the next one, `CC(=O)Nc1c(F)ccc(NC(=O)c2cc(NC(=O)[C@H]3[C@H](c4cccc(C(F)(F)F)c4)C3(Cl)Cl)ccc2Cl)c1F` ?
50 to 100%

And the next one, `O=C(Nc1c(F)ccc(NC(=O)C(F)(F)F)c1F)c1cc(NC(=O)[C@H]2[C@H](c3ccc(Cl)c(Cl)c3)C2(Cl)Cl)cc(F)c1F` ?
50 to 100%

And the next one, `Nc1c(F)ccc(NC(=O)c2cc(NC(=O)[C@H]3[C@H](c4cccc(C(F)(F)F)c4)C3(Cl)Cl)ccc2Cl)c1F` ?
50 to 100%

I would be grateful if you could provide pest or weed control at 50 µg/cm2 for each of the following entries.
1. CCOC(C)C(=O)N(C)c1c(F)ccc(NC(=O)c2cc(NC(=O)[C@H]3[C@H](c4ccc(Cl)c(Cl)c4)C3(Cl)Cl)ccc2Cl)c1F (stereo partly shown)
2. O=C(Nc1ccc(F)c(NC(=O)C2CCCS2)c1F)c1cc(NC(=O)[C@H]2[C@H](c3ccc(F)c(C(F)(F)F)c3)C2(Cl)Cl)ccc1Cl (stereo partly shown)
3. Nc1cc(NC(=O)c2cc(NC(=O)[C@H]3[C@H](c4ccc(F)c(C(F)(F)F)c4)C3(Cl)Cl)cc(F)c2Cl)c(F)cc1F
4. O=C1CCC(C(=O)Nc2c(F)ccc(NC(=O)c3cc(NC(=O)[C@H]4[C@H](c5ccc(F)c(C(F)(F)F)c5)C4(Cl)Cl)ccc3Cl)c2F)C1 (stereo partly shown)

1. 50 to 100%
2. 50 to 100%
3. 50 to 100%
4. 50 to 100%

I would be grateful if you could provide pest or weed control at 50 µg/cm2 for each of the following entries.
1. O=C(Nc1ccc(F)c(NC(=O)C(F)(F)C(F)(F)C(F)(F)F)c1F)c1cc(NC(=O)[C@H]2[C@H](c3cc(Cl)c(Cl)c(Cl)c3)C2(Cl)Cl)ccc1Cl
2. CC(=O)Nc1cc(NC(=O)c2cc(NC(=O)[C@H]3[C@H](c4cc(Cl)c(Cl)c(Cl)c4)C3(Cl)Cl)ccc2Cl)c(F)cc1F
3. CN(C(=O)CC#N)c1c(F)ccc(NC(=O)c2cc(NC(=O)[C@H]3[C@H](c4ccc(Cl)c(Cl)c4)C3(Cl)Cl)ccc2Cl)c1F
4. CC(=O)Nc1c(F)ccc(NC(=O)c2cc(NC(=O)[C@H]3[C@H](c4ccc(Cl)c(Cl)c4)C3(Cl)Cl)ccc2F)c1F
5. O=C(Nc1ccc(F)c(NC(=O)C2CCCO2)c1F)c1cc(NC(=O)[C@H]2[C@H](c3ccc(F)c(Cl)c3)C2(Cl)Cl)ccc1Cl (stereo partly shown)

1: 50 to 100%; 2: 50 to 100%; 3: 50 to 100%; 4: 50 to 100%; 5: 50 to 100%

I would be grateful if you could provide pest or weed control at 50 µg/cm2 for each of the following entries.
1. CC(=O)Nc1c(F)ccc(NC(=O)c2cc(NC(=O)[C@H]3[C@H](c4cc(Cl)cc(Cl)c4)C3(Cl)Cl)cc(F)c2F)c1F
2. O=C(Nc1cc(NC(=O)C(F)(F)F)c(F)cc1F)c1cc(NC(=O)[C@H]2[C@H](c3cc(Cl)c(Cl)c(Cl)c3)C2(Cl)Cl)cc(F)c1Cl
3. O=C(Nc1ccc(F)c(NC(=O)C2CCCO2)c1F)c1cc(NC(=O)[C@H]2[C@H](c3cc(F)cc(C(F)(F)F)c3)C2(Cl)Cl)ccc1Cl (stereo partly shown)

1. 50 to 100%
2. 50 to 100%
3. 50 to 100%
